MEASUREMENT_PROTOCOL: Pharmacokinetics of curcumin and THC in plasma during and after liposomal curcumin infusion
Format: in vivo, human
CONDITION_SET: human, in vivo, 190 mg/m^2, plasma THC, first liposomal curcumin infusion; DL 4: 190 mg/m^2, 8 h infusion; Mean, patient #19 not included; read-out: AUC0-Tlast
ENDPOINT: AUC(0-t) (ng·h/mL)
Lab book: enter the figure in ng·h/mL, no units written.

Which measured AUC(0-t) value corresponds to COc1cc(CCC(=O)CC(=O)CCc2ccc(O)c(OC)c2)ccc1O [tetrahydrocurcumin] ?
27

---

MEASUREMENT_PROTOCOL: Pharmacokinetics of curcumin and THC in plasma during and after liposomal curcumin infusion
Type: in vivo, human
CONDITION_SET: human, in vivo, 150 mg/m^2, plasma THC, first liposomal curcumin infusion; DL 3: 150 mg/m^2, 8 h infusion; patient 17; read-out: Tmax
ENDPOINT: Tmax (h)
Lab book: enter the figure in h, no units written.

Which measured Tmax value corresponds to COc1cc(CCC(=O)CC(=O)CCc2ccc(O)c(OC)c2)ccc1O [tetrahydrocurcumin] ?
4

---

MEASUREMENT_PROTOCOL: clinical
Format: in vivo, human
CONDITION_SET: human, in vivo, mean Tmax for curcumin
ENDPOINT: Tmax

Which measured Tmax value corresponds to COc1cc(/C=C/C(=O)CC(=O)/C=C/c2ccc(O)c(OC)c2)ccc1O [Curcumin] ?
3.6 to 4 h
